test: Binding affinity to HIV1 gp41-GCN4-pIQI fusion protein IQN17; parameters: species or system Human immunodeficiency virus 1
# pKd listing for each entry below
Reminder that pKd is minus the log10 of a molar concentration.

Use the examples below as a reference point.
compound="CC[C@@](C)(CC(=O)N[C@H](CC(=O)O)CC(=O)NC(C)(C)CC(=O)NC(CC(=O)N[C@@H](CCN)CC(=O)NC(C)(C)CC(=O)N[C@H](CC(=O)NC(CC(=O)O)CC(=O)O)Cc1c[nH]c2ccccc12)Cc1ccccc1Cl)NC(=O)CC(C)(C)NC(=O)C[C@@H](N)CCN (some centres not stated)" observed_measurement=4.88
compound="CC[C@@](C)(CC(=O)N[C@H](CC(=O)O)CC(=O)NC(C)(C)CC(=O)NC(CC(=O)N[C@@H](CCN)CC(=O)NC(C)(C)CC(=O)N[C@H](CC(=O)NC(CC(=O)O)CC(=O)O)Cc1c[nH]c2ccccc12)Cc1ccc(I)cc1)NC(=O)CC(C)(C)NC(=O)C[C@@H](N)CCN (some centres not stated)" observed_measurement=4.85
compound="CC[C@@](C)(CC(=O)N[C@H](CC(=O)O)CC(=O)NC(C)(C)CC(=O)NC(CC(=O)N[C@@H](CCN)CC(=O)NC(C)(C)CC(=O)N[C@H](CC(=O)NC(CC(=O)O)CC(=O)O)Cc1c[nH]c2ccccc12)Cc1cccnc1)NC(=O)CC(C)(C)NC(=O)C[C@@H](N)CCN (some centres not stated)" observed_measurement=3.98

## Task Look up pKd for this compound: CC[C@@](C)(CC(=O)N[C@H](CC(=O)O)CC(=O)NC(C)(C)CC(=O)N[C@@H](CC(=O)N[C@@H](CCN)CC(=O)NC(C)(C)CC(=O)N[C@H](CC(=O)NC(CC(=O)O)CC(=O)O)Cc1c[nH]c2ccccc12)Cc1c[nH]c2ccccc12)NC(=O)CC(C)(C)NC(=O)C[C@@H](N)CCN
## Result 4.78

## Task // repeat for CC[C@@](C)(CC(=O)N[C@H](CC(=O)O)CC(=O)NC(C)(C)CC(=O)NC(CC(=O)N[C@@H](CCN)CC(=O)NC(C)(C)CC(=O)N[C@H](CC(=O)NC(CC(=O)O)CC(=O)O)Cc1c[nH]c2ccccc12)Cc1cccc(F)c1)NC(=O)CC(C)(C)NC(=O)C[C@@H](N)CCN (some centres not stated) and report
## Result 4.80

## Task # repeat for CC[C@@](C)(CC(=O)N[C@H](CC(=O)O)CC(=O)NC(C)(C)CC(=O)NC(CC(=O)N[C@@H](CCN)CC(=O)NC(C)(C)CC(=O)N[C@H](CC(=O)NC(CC(=O)O)CC(=O)O)Cc1c[nH]c2ccccc12)Cc1cccc(C(F)(F)F)c1)NC(=O)CC(C)(C)NC(=O)C[C@@H](N)CCN (some centres not stated)
## Result 4.99

## Task Param item: CC[C@@](C)(CC(=O)N[C@H](CC(=O)O)CC(=O)NC(C)(C)CC(=O)NC(CC(=O)N[C@@H](CCN)CC(=O)NC(C)(C)CC(=O)N[C@H](CC(=O)NC(CC(=O)O)CC(=O)O)Cc1c[nH]c2ccccc12)Cc1ccc2ccccc2c1)NC(=O)CC(C)(C)NC(=O)C[C@@H](N)CCN (some centres not stated)
## Result 4.91
